RECORDED CONDITIONS: human gut metagenome, 24 h, 2 µM; further: call rule not given here

{"columns": ["STRUCTURE AS SMILES", "Bacterial Biotransformation"],
 "data": [
  ["C#C[C@]1(O)CC[C@H]2[C@@H]3CCC4=Cc5oncc5C[C@]4(C)[C@H]3CC[C@@]21C", "Compound metabolized"],
  ["COc1c2occc2cc2ccc(=O)oc12", "Compound metabolized"],
  ["c1ccc([C@H]2CN3CCSC3=N2)cc1", "Compound metabolized"]
]}

###

RECORDED CONDITIONS: human gut metagenome, 24 h, 2 µM
VALUE KIND: Bacterial Biotransformation

Known results for compounds:
{"columns": ["COMPOUND", "Bacterial Biotransformation"],
 "data": [
  ["CC(C)c1c(C(=O)Nc2ccccc2)c(-c2ccccc2)c(-c2ccc(F)cc2)n1CC[C@@H](O)C[C@@H](O)CC(=O)O", "Compound metabolized"],
  ["CNCCC(Oc1ccc(C(F)(F)F)cc1)c1ccccc1 (stereo not drawn)", "Compound NOT metabolized"],
  ["CC(O)(CS(=O)(=O)c1ccc(F)cc1)C(=O)Nc1ccc(C#N)c(C(F)(F)F)c1 (stereo not drawn) [BICALUTAMIDE]", "Compound NOT metabolized"],
  ["CS(=O)(=O)O.O.O.O.O=C1Cc2cc(CCN3CCN(c4nsc5ccccc45)CC3)c(Cl)cc2N1 [ZIPRASIDONE MESYLATE]", "Compound metabolized"],
  ["Cc1ccnc2c1NC(=O)c1cccnc1N2C1CC1", "Compound metabolized"],
  ["COc1ccc2c(c1OC)C(=O)O[C@@H]2[C@H]1c2c(cc3c(c2OC)OCO3)CCN1C", "Compound NOT metabolized"],
  ["CN(C)C(=O)C(CCN1CCC(O)(c2ccc(Cl)cc2)CC1)(c1ccccc1)c1ccccc1 [LOPERAMIDE]", "Compound metabolized"],
  ["CCN(CC)CCNC(C(=O)OCCC(C)C)c1ccccc1.Cl.Cl (stereo not drawn)", "Compound metabolized"],
  ["CCN(CC)C(C)CN1c2ccccc2Sc2ccccc21 (stereo not drawn)", "Compound metabolized"],
  ["CCCC1O[C@@H]2C[C@H]3[C@@H]4CCC5=CC(=O)C=C[C@]5(C)[C@H]4[C@@H](O)C[C@]3(C)[C@]2(C(=O)CO)O1 (stereo partly drawn) [BUDESONIDE]", "Compound metabolized"]
]}

Bench note: what Bacterial Biotransformation did NC(CO)(CO)CO.O=C(c1ccccc1)c1ccc2n1CCC2C(=O)O (stereo not drawn) show?
Compound metabolized

I am curious: what Bacterial Biotransformation value has been reported for CCOc1ccc(NC(C)=O)cc1 ?
Compound NOT metabolized

I am curious: what Bacterial Biotransformation value has been reported for O=C(O)CCc1nc(-c2ccccc2)c(-c2ccccc2)o1 ?
Compound metabolized
